Every entry's value here was drawn from PubChem BioAssay (NCI).

# Lookup of reported TGI keyed by entry
Tested on: OVCAR-4 ovarian
Assay: NCI tumour cell line growth inhibition, 48 h
Experimental Readout: TGI

* C/C(O)=C(\C=NC(=S)c1cccnc1)C(=O)Nc1ccccc1C | > 100 µM
* CC1=CC(C)(C)Nc2ccc(Cc3ccc4c(c3)C(C)=CC(C)(C)N4)cc21 | > 100 µM
* CCOC(=O)c1c(N2CCOCC2)ncn(-c2cccc(Cl)c2)c1=O | > 100 µM
* C=C1CCC2[C@](C)(CCC[C@]2(C)C(=O)O)[C@@H]1CCc1ccoc1 (stereo not given in full) | > 100 µM
* S=c1[nH]n2c(COc3ccc(Cl)cc3)nnc2s1 | > 100 µM
